biological target: human TPO receptor (hTPOR) (Homo sapiens); construct: expressed in transfected cells; host or cells: BaF-B03 (murine IL-3 dependent cell line); experiment: Thrombopoietic activity: proliferation of TPO dependent BaF/hTPOR cells (WST-1, absorbance at 450 nm); format: cell-based; settings: 20 h + 4 h WST-1, ED50 = half concentration of the concentration showing the maximum thrombopoietic activity, Table 1
Sequence (P40238 26-635): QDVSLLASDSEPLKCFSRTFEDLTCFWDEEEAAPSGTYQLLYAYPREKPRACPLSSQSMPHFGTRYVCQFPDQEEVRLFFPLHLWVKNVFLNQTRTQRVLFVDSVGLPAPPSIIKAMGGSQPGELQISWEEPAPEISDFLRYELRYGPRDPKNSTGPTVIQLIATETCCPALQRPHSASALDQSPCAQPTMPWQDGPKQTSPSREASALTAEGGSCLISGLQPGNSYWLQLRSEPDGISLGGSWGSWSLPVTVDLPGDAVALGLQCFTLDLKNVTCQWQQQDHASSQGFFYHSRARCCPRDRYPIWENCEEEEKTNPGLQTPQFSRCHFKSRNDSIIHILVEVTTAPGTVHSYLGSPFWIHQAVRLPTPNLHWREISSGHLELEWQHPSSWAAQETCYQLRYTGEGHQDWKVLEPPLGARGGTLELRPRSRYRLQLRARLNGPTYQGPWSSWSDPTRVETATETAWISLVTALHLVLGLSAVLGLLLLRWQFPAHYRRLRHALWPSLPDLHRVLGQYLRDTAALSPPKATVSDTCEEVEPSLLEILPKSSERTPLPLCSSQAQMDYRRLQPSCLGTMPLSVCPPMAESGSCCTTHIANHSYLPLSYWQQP
The reader will find reported EC50 values listed item by item below.
A number alone suffices; assume nM.

Please review the entries below; each comes with its answer.
• CCC(CCCc1cccc(-c2csc(NC(=O)c3cc(F)c(C=C(C)C(=O)O)c(F)c3)n2)c1F)OC (stereo not shown) [Compound B12] = 2.1
• CCCOCCCC(OC)c1cccc(-c2csc(NC(=O)c3cc(F)c(/C=C(\C)C(=O)O)c(F)c3)n2)c1OC (stereo not shown) [Compound B1799] = 17.3

-- ask Given the entry CCCCCCCCCC(OC)c1cccc(-c2csc(NC(=O)c3cc(F)c(/C=C(\C)C(=O)O)c(F)c3)n2)c1OCC (stereo not shown) [Compound B2099] , report its measured EC50.
-- reply 2.91

-- ask Try this compound next: CCCCCC(OC)c1cccc(-c2csc(NC(=O)c3cc(F)c(C=C(C)C(=O)O)c(F)c3)n2)c1F (stereo not shown) [Compound B1]
-- reply 2.2
